# EXPERIMENT DESCRIPTION: DRUGMATRIX: Sodium/nucleoside co-transporter radioligand binding (ligand: nitrobenzylthioinosine)
# Format: cell membranes, Cavia porcellus, Dunkin-Hartley, Cerebral cortex, Membrane
# APPLIED CONDITIONS: Not Active = under 50% inhibition at 10 µM
ASSAY ENDPOINT: IC50

COP(=O)(OC)OC=C(Cl)Cl = Not Active
COc1ccc2[nH]c([S+]([O-])Cc3ncc(C)c(OC)c3C)nc2c1 (stereo unspecified) = Not Active
COc1ccc2cc([C@H](C)C(=O)O)ccc2c1 = Not Active
CC(=O)Nc1cccc(O)c1 = Not Active
O=NN(CCCl)C(=O)NCCCl = Not Active

Please examine the following record next.
Prompt: IC50 lookup needed for O=C1CCC(N2C(=O)c3ccccc3C2=O)C(=O)N1 (stereo unspecified) [THALIDOMIDE] , thanks.
Completion: Not Active

----------
# TARGET ENTITY: Prostaglandin G/H synthase 1 (Homo sapiens, UniProt P23219); also: in other assays of this panel Not Active means under 50% inhibition at 10 µM;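 also: inhibition of COX-1 enzyme activity, with arachidonic acid supplied as substrate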
# Sequence (P23219 whole entry): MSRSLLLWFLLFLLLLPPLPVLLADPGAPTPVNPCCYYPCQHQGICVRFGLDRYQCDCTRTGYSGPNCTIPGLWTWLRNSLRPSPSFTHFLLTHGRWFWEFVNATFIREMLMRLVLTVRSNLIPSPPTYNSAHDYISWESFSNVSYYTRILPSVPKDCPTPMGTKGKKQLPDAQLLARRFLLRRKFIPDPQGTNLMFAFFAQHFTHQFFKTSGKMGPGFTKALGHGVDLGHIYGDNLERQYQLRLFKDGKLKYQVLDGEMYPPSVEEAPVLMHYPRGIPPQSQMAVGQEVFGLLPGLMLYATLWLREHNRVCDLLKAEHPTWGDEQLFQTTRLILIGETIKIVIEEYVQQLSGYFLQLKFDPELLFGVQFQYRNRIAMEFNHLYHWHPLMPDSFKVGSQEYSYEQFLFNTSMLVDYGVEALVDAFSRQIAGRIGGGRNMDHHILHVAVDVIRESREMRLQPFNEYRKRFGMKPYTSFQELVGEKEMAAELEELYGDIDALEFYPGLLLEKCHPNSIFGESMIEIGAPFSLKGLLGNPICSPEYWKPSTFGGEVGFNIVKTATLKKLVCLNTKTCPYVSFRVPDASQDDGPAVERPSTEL
# EXPERIMENT DESCRIPTION: biochemical
# Type: tissue-based, Platelet
# APPLIED CONDITIONS: platelet
ASSAY ENDPOINT: IC50

CCOC(=O)C1=C(C)NC(C)=C(C(=O)OC)C1c1cccc([N+](=O)[O-])c1 (stereo not drawn) = Not Active
CCN1CC(CCN2CCOCC2)C(c2ccccc2)(c2ccccc2)C1=O (stereo not drawn) = Not Active
COCCOC(=O)C1=C(C)NC(C)=C(C(=O)OC(C)C)C1c1cccc([N+](=O)[O-])c1 (stereo not drawn) = Not Active
O=C(c1ccc(OCCN2CCCCC2)cc1)c1c(-c2ccc(O)cc2)sc2cc(O)ccc12 = Not Active
COC(=O)C1=C(C)NC(C)=C(C(=O)OCC(C)C)C1c1ccccc1[N+](=O)[O-] (stereo not drawn) = Not Active
C[C@@H](N)[C@H]1CC[C@H](C(=O)Nc2ccncc2)CC1 = Not Active
CC(C)(Oc1ccc(C2CCCc3ccccc32)cc1)C(=O)O (stereo not drawn) = Not Active

Please examine the following record next.
Prompt: IC50 lookup needed for C[C@@H]1C[C@@H]([C@H](O)CC2CC(=O)NC(=O)C2)C(=O)[C@@H](C)C1 [CYCLOHEXIMIDE] , thanks.
Completion: Not Active

----------
# EXPERIMENT DESCRIPTION: DRUGMATRIX: GABAA, Flunitrazepam, Central radioligand binding (ligand: [3H] Flunitrazepam)
# Type: cell membranes, Rattus norvegicus, Wistar, Brain, Membrane
# APPLIED CONDITIONS: Not Active = under 50% inhibition at 10 µM
ASSAY ENDPOINT: IC50

CCC1=C[C@@H]2CN(C1)Cc1c([nH]c3ccccc13)[C@@](C(=O)OC)(c1cc3c(cc1OC)N(C)[C@H]1[C@@](O)(C(=O)OC)[C@H](OC(C)=O)[C@]4(CC)C=CCN5CC[C@]31[C@@H]54)C2 = Not Active
C=C1CC[C@H](O)C/C1=C/C=C1\CCC[C@]2(C)[C@@H]([C@H](C)CCCC(C)C)CC[C@@H]12 = Not Active
CC(C)(Oc1ccc(C2CCCc3ccccc32)cc1)C(=O)O (stereo not drawn) = Not Active

----------
# TARGET ENTITY: Alpha-2A adrenergic receptor (Homo sapiens, UniProt P08913); also: in other assays of this panel Not Active means under 50% inhibition at 10 µM
# Sequence (P08913 whole entry): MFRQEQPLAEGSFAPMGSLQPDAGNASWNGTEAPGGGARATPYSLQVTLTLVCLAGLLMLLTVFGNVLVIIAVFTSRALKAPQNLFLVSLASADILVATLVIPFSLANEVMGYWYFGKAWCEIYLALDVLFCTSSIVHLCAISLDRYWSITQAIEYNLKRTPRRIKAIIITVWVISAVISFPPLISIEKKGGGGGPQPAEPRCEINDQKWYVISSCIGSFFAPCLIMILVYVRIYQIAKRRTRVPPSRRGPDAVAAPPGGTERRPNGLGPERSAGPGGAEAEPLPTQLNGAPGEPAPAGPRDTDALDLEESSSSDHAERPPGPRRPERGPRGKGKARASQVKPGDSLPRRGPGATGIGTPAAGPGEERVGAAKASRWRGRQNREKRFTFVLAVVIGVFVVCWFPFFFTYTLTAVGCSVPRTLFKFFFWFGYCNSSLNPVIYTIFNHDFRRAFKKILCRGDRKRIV
# Assay type: cell membranes, Sf9, Membrane
# APPLIED CONDITIONS: sf9; read-out: Ki
ASSAY ENDPOINT: pKi
pKi here: minus log base 10 of the concentration, concentration in moles per litre.

Prompt: pKi lookup needed for CADMIUM DICHLORIDE , thanks.
Completion: 5.59

Values from ChEMBL document CHEMBL1909046
